What follows is a collection of pIC50 values obtained with Human cyclophilin A (Homo sapiens, UniProt P62937).
Sequence (P62937 whole entry): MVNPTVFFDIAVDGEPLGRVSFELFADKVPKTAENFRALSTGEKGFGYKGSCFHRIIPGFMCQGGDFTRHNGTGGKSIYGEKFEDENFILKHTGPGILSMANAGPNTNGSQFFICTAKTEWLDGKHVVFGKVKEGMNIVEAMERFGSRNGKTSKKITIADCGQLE
In textbook form, pIC50 equals minus log to base ten of the concentration in mol/L.

molecule: O=C(NCc1ccc2c(c1)CCCN2)NC(C(=O)N1CCCC1c1cccc2ccsc12)C1CCCCC1 (stereo not drawn)
value.observed: 6.15

(Q) Consider the molecule O=C(NCc1ccc2c(c1)CCCN2)NC(C(=O)N1CCCC1c1cccc2ccsc12)c1ccccc1 (stereo not drawn) tested on Human cyclophilin A (Homo sapiens, UniProt P62937); state its pIC50.
(A) 6.40

(Q) Consider the molecule Nc1ccc(CNC(=O)NC(C(=O)N2CCCC2c2cccc3ccsc23)C2CCCCC2)cc1 (stereo not drawn) tested on Human cyclophilin A (Homo sapiens, UniProt P62937); state its pIC50.
(A) 6.22
